Biological target: T1, HTRA4, P83105
T1 sequence (P83105 378-476, limits assumed, looked up): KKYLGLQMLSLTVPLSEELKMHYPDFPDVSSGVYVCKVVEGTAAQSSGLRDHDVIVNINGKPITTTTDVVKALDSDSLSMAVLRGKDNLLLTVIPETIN
Assay: holdup assay
Design: key: below the threshold = too weak to quantify, mostly under pKd 3.1 to 4
Details: plain residues with an end cap or a label only (N-terminal biotin on a linker: ado-ado)
RESULT_TYPE: pKd

Some entries whose results are on file:
[[record]]
binder = "QPCFNKLFPL [LPXN, O60711]"
endpoint_result = 3.95

[[record]]
binder = "VRNLPESEEL [MYOZ3, Q8TDC0]"
endpoint_result = 3.94

[[record]]
binder = "TSSMRGMDAV [RSRC2, Q7L4I2]"
endpoint_result = "below the threshold"

[[record]]
binder = "RRISSLESEV [GRIN2C, Q14957]"
endpoint_result = "below the threshold"

[[record]]
binder = "TPPAAKKSRI [BAZ1A, Q9NRL2]"
endpoint_result = "below the threshold"


Look up pKd for the entries below, preserving their order.
1. RKPKPSSSCC [RAB9A, P51151]
2. LPAHHNATRL [SLC34A1, Q06495;Q06495-1]
3. TASPAKETSF [SLC2A7, Q6PXP3]
4. CLREWCDAFL [BANF1, O75531]
5. IKAIVDLTGL [TRAF2, Q12933]
6. RHGSCVETSL [TMEM151B, Q8IW70]
7. SAKVRTVTSV [RASL11B, Q9BPW5]

[A]
below the threshold
3.96
below the threshold
3.64
below the threshold
below the threshold
4.06

Taken from paper PMC9482650.
